IC50 values for Tyrosine-protein kinase JAK1 (Homo sapiens, UniProt P23458) compiled from several publications are listed below.

>>> df
                                   compound          result
0  N#CCC1(n2cc(-c3nc(-c4cnn(C5COC5)c4)cc4ncc(Cl)n34)cn2)CN(CC(F)(F)F)C1  100 to 1000 nM

Exercise: Can you look up IC50 on Tyrosine-protein kinase JAK1 (Homo sapiens, UniProt P23458) for "Cn1cc(-c2cc3nccn3c(-c3cnn(C(C4CC4)C4CC4)c3)n2)cn1" ?
Solution: > 1000 nM

Exercise: Can you look up IC50 on Tyrosine-protein kinase JAK1 (Homo sapiens, UniProt P23458) for "COc1cncc(-c2cc3c(N[C@@H]4CC[C@](C)(N)C4(C)C)c(C(N)=O)cnn3c2)c1" ?
Solution: 4.1 nM

Exercise: Can you look up IC50 on Tyrosine-protein kinase JAK1 (Homo sapiens, UniProt P23458) for "CN(C)c1ccc(C(=O)N2CCC(N3CC(CC#N)(n4cc(-c5ncnc6[nH]ccc56)cn4)C3)CC2)cc1C#N" ?
Solution: ≤ 5 nM

Exercise: Can you look up IC50 on Tyrosine-protein kinase JAK1 (Homo sapiens, UniProt P23458) for NC(=O)c1cnc(Nc2ccc3c(c2)NCC(O)CO3)nc1NCc1ccccc1 (centres unmarked) ?
Solution: < 10 nM
